Each item that follows carries a reported F.
assay: Pharmacokinetic study on the tested compound in SD male rats; type: in vivo; details: IV 1 mpk/PO 2 mpk
Give your result in % as a bare value.

Worked set:
COc1cc([C@@H](C)C(=O)N2C[C@@H](Nc3ccc(-c4cn(C)nn4)c(C)n3)C3(CC3)C2)c(Cl)cn1
56.0
COc1cc([C@@H](C)C(=O)N2C[C@@H](Nc3ccc(-c4cn(C)c(OC(F)F)n4)c(C)n3)C3(CC3)C2)c(F)cn1
22.9
COc1cc([C@@H](C)C(=O)N2C[C@@H](Nc3ccc(-c4ncccn4)c(C)n3)C3(CC3)C2)c(F)cn1
61.5
COc1cc([C@@H](C)C(=O)N2C[C@H](C)[C@H](Nc3ccc(-c4ncccn4)c(C)n3)C2)c(Cl)cn1
33.8
COc1cc([C@@H](C)C(=O)N2C[C@@H](Nc3ccc(-c4ncccn4)c(C)n3)C3(CC3)C2)c(Cl)cn1
54.0

Entry COc1cc([C@@H](C)C(=O)N2CC[C@H](Nc3ccc(-c4cn(C)c(OC(F)F)n4)c(C)n3)C2)c(F)cn1 : reported F = ?
11.1

Then what about the compound COc1cc([C@@H](C)C(=O)N2C[C@H](C)[C@H](Nc3ccc(-c4ncccn4)c(C)n3)C2)c(F)cn1 ?
52.7

Then what about the compound COc1cc([C@@H](C)C(=O)N2CC[C@H](Nc3ccc(-c4ncccn4)c(C)n3)C2)c(Cl)cn1 ?
31.3

Then what about the compound COc1cc([C@@H](C)C(=O)N2CC[C@H](Nc3ccc(-c4ncccn4)c(C)n3)C2)c(F)cn1 ?
86.8

====

Each item that follows carries a reported Cmax.
experiment: Pharmacokinetic study on the tested compound in SD male rats; format: in vivo; settings: Sprague-Dawley (SD), rat, plasma, IV 1 mpk/PO 2 mpk
Give your result in ng/mL as a bare value.

COc1cc([C@@H](C)C(=O)N2CC[C@H](Nc3ccc(-c4ncccn4)c(C)n3)C2)c(Cl)cn1 [Compound 083-1]
156

Entry COc1cc([C@@H](C)C(=O)N2C[C@@H](Nc3ccc(-c4cn(C)nn4)c(C)n3)C3(CC3)C2)c(Cl)cn1 [Compound 165] : reported Cmax = ?
577

Then what about the compound COc1cc([C@@H](C)C(=O)N2C[C@@H](Nc3ccc(-c4cn(C)c(OC(F)F)n4)c(C)n3)C3(CC3)C2)c(F)cn1 [Compound 185] ?
129

====

Target: CYP 3A4M (Homo sapiens, UniProt P08684)
Construct: from tissue; host or cells: human liver microsomes (HLM)
Sequence (P08684 whole entry): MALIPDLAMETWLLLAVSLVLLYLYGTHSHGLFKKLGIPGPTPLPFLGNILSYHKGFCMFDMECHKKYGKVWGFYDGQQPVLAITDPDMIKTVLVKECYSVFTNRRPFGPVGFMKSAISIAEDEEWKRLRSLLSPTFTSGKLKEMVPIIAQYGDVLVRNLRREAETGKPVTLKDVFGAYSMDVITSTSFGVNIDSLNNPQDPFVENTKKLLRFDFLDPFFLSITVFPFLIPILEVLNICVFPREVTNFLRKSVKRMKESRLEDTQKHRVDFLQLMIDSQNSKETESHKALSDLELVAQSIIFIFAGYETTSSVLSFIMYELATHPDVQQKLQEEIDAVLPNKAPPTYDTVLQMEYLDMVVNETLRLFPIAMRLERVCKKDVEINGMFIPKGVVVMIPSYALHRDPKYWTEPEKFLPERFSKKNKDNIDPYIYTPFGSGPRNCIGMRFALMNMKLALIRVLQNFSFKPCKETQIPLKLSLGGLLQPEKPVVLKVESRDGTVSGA
Test: Inhibition of P450 enzyme (CYP 3A4, midazolam as substrate) in human liver microsomes
Type: in vitro ADME
Protocol: The inhibitory effect of the tested compound on 3A4-M (with midazolam as a substrate) in human liver microsomes is evaluated in vitro to assess the safety of the compound. […] 199 µL of 0.2 mg/mL HLM and 1 µL of test sample working solution (12 mM, 4 mM, 1.33 mM, 0.433 mM, 0.147 mM, 0.049 mM, and 0.0164 mM) were mixed uniformly. […] 80 µL of supernatant was taken and added to 120 µL of ultrapure water, shaken uniformly, and then detected by LC-MS/MS. […]
pIC50: −log10 of the molar value.
MEASUREMENT KIND: pIC50

Identify the measured pIC50 of COc1cc([C@@H](C)C(=O)N2C[C@@H](Nc3ccc(-c4ncccn4)c(C)n3)C3(CC3)C2)c(Br)cn1 [Compound 201] for CYP 3A4M (Homo sapiens, UniProt P08684).
< 4.52

====

target: MC4R (Homo sapiens, UniProt P32245); assay: Assay of MC4R antagonist activity in cells in vitro (cAMP assay, Melanotan I stimulation); conditions: flipin-293-MC4 cell line, Melanotan I as agonist
Sequence (P32245 whole entry): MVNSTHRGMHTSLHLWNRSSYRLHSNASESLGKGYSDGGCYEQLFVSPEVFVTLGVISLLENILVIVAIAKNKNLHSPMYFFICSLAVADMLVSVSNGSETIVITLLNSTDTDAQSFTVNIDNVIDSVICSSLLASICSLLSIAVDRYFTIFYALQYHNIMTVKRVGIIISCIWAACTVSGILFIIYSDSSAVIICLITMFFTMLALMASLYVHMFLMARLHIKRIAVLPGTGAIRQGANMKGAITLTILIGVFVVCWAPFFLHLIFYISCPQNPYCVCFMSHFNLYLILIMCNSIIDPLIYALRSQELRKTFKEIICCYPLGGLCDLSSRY
MEASUREMENT KIND: pIC50
pIC50 is defined as minus the log10 of a concentration measured in mol/L.

Worked set:
COc1cc([C@@H](C)C(=O)N2C[C@@H](Nc3ccc(-c4cn(C)cn4)c(C)n3)C3(CC3)C2)c(F)cn1 [Compound 150]
8.74
COc1cc([C@@H](C)C(=O)N2C[C@H](C)[C@H](Nc3ccc(-c4ncccn4)c(C)n3)C2)c(Cl)cn1 [Compound 112]
8.64
COc1cc([C@@H](C)C(=O)N2C[C@@H](Nc3ccc(-c4cc(C#N)ccn4)c(C)n3)C3(CC3)C2)c(Cl)cn1 [Compound 168]
8.43
COc1cc([C@@H](C)C(=O)N2C[C@@H](Nc3ccc(-c4cnn(C)c4)c(C)n3)C3(CC3)C2)c(F)cn1 [Compound 143]
8.24
COc1cc([C@@H](C)C(=O)N2C[C@@H](Nc3ccc(-c4cnn(C)n4)c(C)n3)C3(CC3)C2)c(Cl)cn1 [Compound 166]
8.39

Entry COc1cc([C@@H](C)C(=O)N2C[C@@H](Nc3ccc(-c4nccc(C(F)F)n4)c(C)n3)C3(CC3)C2)c(Cl)cn1 [Compound 156] : reported pIC50 = ?
8.73

Then what about the compound COc1cc([C@@H](C)C(=O)N2C[C@@H](C)[C@H](Nc3ccc(-c4ncccn4)c(C)n3)C2)c(F)cn1 [Compound 051-2] ?
7.97

====

Molecular target: MC4R (Homo sapiens, UniProt P32245)
Test: Assay of MC4R antagonist activity in cells in vitro (cAMP assay, Melanotan I stimulation)
Settings: flipin-293-MC4 cell line, Melanotan I as agonist
Description: Test Example 1: Assay of MC4R antagonist activity in cells in vitro a. Experimental consumables: b. Experimental steps • ✔ Cell line: flipin-293-MC4 • ✔ Cell culture medium: DMEM, 10% fetal bovine serum, 1 × PS, 200 µg/mL hygromycin • ✔ Experimental buffer: HBSS, 20 mM HEPES, 0.1% BSA, 500 µM IBMX • ✔ Positive compound: ML00253764 c. Antagonist detection • 1. […] The to-be-detected compound was added to the cell plate, and incubated at 37°C for 10 min. • 3. […] Reading was carried out by Envision. […]
Checkbox rule: IC50 lower than 2 nM = Criterion met; IC50 not lower than 2 nM = Criterion not met.

Decide: IC50 of COc1cc([C@@H](C)C(=O)N2C[C@@H](Nc3ccc(-c4cn5c(n4)C(F)(F)CC5)c(C)n3)C3(CC3)C2)c(F)cn1 strictly below 2 nM?
Criterion not met

Then what about the compound COc1cc([C@@H](C)C(=O)N2C[C@@H](Nc3ccc(-c4cn(C)c(C)n4)c(C)n3)C3(CC3)C2)c(F)cn1 ?
Criterion met

====

Each item that follows carries a reported Cmax.
assay: Pharmacokinetic study on the tested compound in SD male rats; assay type: in vivo; conditions: Sprague-Dawley (SD), rat, plasma, IV 1 mpk/PO 2 mpk
Give your result in ng/mL as a bare value.

Worked set:
COc1cc([C@@H](C)C(=O)N2C[C@@H](Nc3ccc(-c4ncccn4)c(C)n3)C3(CC3)C2)c(F)cn1
380
COc1cc([C@@H](C)C(=O)N2C[C@H](C)[C@H](Nc3ccc(-c4ncccn4)c(C)n3)C2)c(Cl)cn1
157
COc1cc([C@@H](C)C(=O)N2C[C@H](C)[C@H](Nc3ccc(-c4ncccn4)c(C)n3)C2)c(F)cn1
329
COc1cc([C@@H](C)C(=O)N2CC[C@H](Nc3ccc(-c4ncccn4)c(C)n3)C2)c(F)cn1
338
COc1cc([C@@H](C)C(=O)N2CC[C@H](Nc3ccc(-c4cn(C)c(OC(F)F)n4)c(C)n3)C2)c(F)cn1
35

Now take the following molecule into account.
Entry COc1cc([C@@H](C)C(=O)N2C[C@@H](Nc3ccc(-c4ncccn4)c(C)n3)C3(CC3)C2)c(Cl)cn1 : reported Cmax = ?
197

====

target: MC4R (Homo sapiens, UniProt P32245); assay: Assay of MC4R antagonist activity in cells in vitro (cAMP assay, Melanotan I stimulation); conditions: flipin-293-MC4 cell line, Melanotan I as agonist
MEASUREMENT KIND: pIC50
pIC50 is defined as minus the log10 of a concentration measured in mol/L.

COc1cc([C@@H](C)C(=O)N2CC[C@H](Nc3ccc(-c4ncccn4)c(C)n3)C2)c(F)cn1 [Compound 001-1]
8.40
COc1cc([C@@H](C)C(=O)N2CC[C@H](Nc3ccc(-c4ncc(C#N)cn4)c(C)n3)C2)c(F)cn1 [Compound 110]
7.58
COc1cc([C@@H](C)C(=O)N2C[C@@H](Nc3ccc(-c4ncccn4)c(C)n3)C(C)(C)C2)c(Cl)cn1 [Compound 199]
6.44
COc1cc([C@@H](C)C(=O)N2C[C@@H](C)[C@H](Nc3ccc(-c4ncccn4)c(C)n3)C2)c(Cl)cn1 [Compound 198]
8.31
COc1cc([C@@H](C)C(=O)N2CC[C@H](Nc3ccc(-c4cn(C)nn4)c(C)n3)C2)c(Cl)cn1 [Compound 195]
9.00

Entry COc1cc([C@@H](C)C(=O)N2C[C@@H](Nc3ccc(-c4nc(C)n(C)n4)c(C)n3)C3(CC3)C2)c(Cl)cn1 [Compound 141] : reported pIC50 = ?
8.54

Then what about the molecule COc1cc([C@@H](C)C(=O)N2C[C@@H](Nc3ccc(-c4cnn(C)c4)c(C)n3)C3(CC3)C2)c(Cl)cn1 [Compound 144] ?
8.74

Then what about the molecule COc1cc([C@@H](C)C(=O)N2C[C@@H](Nc3ccc4cc(OC)c(F)cc4n3)C3(CC3)C2)c(F)cn1 [Compound 117] ?
8.80

Then what about the molecule COc1cc([C@@H](C)C(=O)N2C[C@@H](Nc3ccc(-c4nc(C(F)F)n(C)n4)c(C)n3)C3(CC3)C2)c(F)cn1 [Compound 119] ?
8.77
